- measurementNotes: Single ascending oral dose study in healthy volunteers: plasma pharmacokinetics
- Format: in vivo, human
- details: human, plasma, oral, 350 mg + 525 mg; read-out: AUC0-24, Mean
parameterMeasured: AUC(0-t) (ng·h/mL)
Supply the numeric figure in ng·h/mL, leaving out any unit text.

Data point: `Cn1cc(S(=O)(=O)[C@@](C)(F)C2CCN(C(=O)Nc3ccon3)CC2)c(C(F)F)n1` ; AUC(0-t) = 42100

====

- measurementNotes: Single ascending oral dose study in healthy volunteers: plasma pharmacokinetics
- Format: in vivo, human
- details: human, plasma, oral, 3 mg; read-out: AUC0-last, Median
parameterMeasured: AUC(0-t) (ng·h/mL)
Supply the numeric figure in ng·h/mL, leaving out any unit text.

Data point: `Cn1cc(S(=O)(=O)[C@@](C)(F)C2CCN(C(=O)Nc3ccon3)CC2)c(C(F)F)n1` ; AUC(0-t) = 713

====

- measurementNotes: Single ascending oral dose study in healthy volunteers: plasma pharmacokinetics
- Type: in vivo, human
- details: human, plasma, oral, 6 hours post-dose; bin 0-1000 ng/mL (n = 29); read-out: Plasma Concentration, Median
parameterMeasured: concentration at 6 h
Answer with the number, then the unit.

Data point: `Cn1cc(S(=O)(=O)[C@@](C)(F)C2CCN(C(=O)Nc3ccon3)CC2)c(C(F)F)n1` ; concentration at 6 h = 286 ng/mL

====

- measurementNotes: HFrEF study Part 1 (SAD Cohorts 1 and 2): plasma pharmacokinetics
- Type: in vivo, human
- details: human, plasma, oral; 350 mg single dose; read-out: AUC0-∞, mean (SD)
parameterMeasured: AUC(0-inf) (µg·h/mL)
Supply the numeric figure in µg·h/mL, leaving out any unit text.

Data point: `Cn1cc(S(=O)(=O)[C@@](C)(F)C2CCN(C(=O)Nc3ccon3)CC2)c(C(F)F)n1` ; AUC(0-inf) = 103

====

- measurementNotes: Single ascending oral dose study in healthy volunteers: plasma pharmacokinetics
- Format: in vivo, human
- details: human, plasma, oral, 10 mg; read-out: AUC0-∞, Mean
parameterMeasured: AUC(0-inf) (µg·h/mL)
Supply the numeric figure in µg·h/mL, leaving out any unit text.

Data point: `Cn1cc(S(=O)(=O)[C@@](C)(F)C2CCN(C(=O)Nc3ccon3)CC2)c(C(F)F)n1` ; AUC(0-inf) = 3.41

====

- measurementNotes: Single ascending oral dose study in healthy volunteers: plasma pharmacokinetics
- Format: in vivo, human
- details: human, plasma, oral, 25 mg, 6 Hours Postdose; 25 mg; read-out: Plasma concentration, Geometric Mean
parameterMeasured: concentration at 6 h (ng/mL)
Supply the numeric figure in ng/mL, leaving out any unit text.

Data point: `Cn1cc(S(=O)(=O)[C@@](C)(F)C2CCN(C(=O)Nc3ccon3)CC2)c(C(F)F)n1` ; concentration at 6 h = 281

====

- measurementNotes: Single ascending oral dose study in healthy volunteers: plasma pharmacokinetics
- Type: in vivo, human
- details: human, plasma, oral, 25 mg; read-out: Tmax, Mean
parameterMeasured: Tmax (h)
Supply the numeric figure in h, leaving out any unit text.

Data point: Cn1cc(S(=O)(=O)[C@@](C)(F)C2CCN(C(=O)Nc3ccon3)CC2)c(C(F)F)n1 [Compound I] ; Tmax = 4.67

====

- measurementNotes: Unbound (free) fraction in plasma
- Assay type: in vitro ADME
- details: dog, Dog plasma, read-out: fup (Dog), unbound fraction in plasma
parameterMeasured: fraction unbound
Please state the value as a number alone, without comment.

Data point: `Cn1cc(S(=O)(=O)[C@@](C)(F)C2CCN(C(=O)Nc3ccon3)CC2)c(C(F)F)n1` ; fraction unbound = 0.416
